Below is a list of entries, each paired with its recorded MCC at 72 h value.
assay: Toxic effects in chick embryo fibroblast cell culture (minimum toxic concentration); conditions: chicken, chick embryo fibroblast cells

In the examples that follow, each entry is paired with its recorded MCC at 72 h.
[
  {
    "compound": "O=c1nc(-c2ccccc2)c2cc([N+](=O)[O-])ccc2n1Cc1cccs1",
    "MCC at 72 h": "50 µg/mL"
  },
  {
    "compound": "O=c1nc(-c2ccccc2)c2cc([N+](=O)[O-])ccc2n1CC1CCCO1 (stereo not shown)",
    "MCC at 72 h": "> 100 µg/mL"
  },
  {
    "compound": "CN1C(=O)C(=NNC(N)=S)c2ccccc21 [Methisazone, reference compound]",
    "MCC at 72 h": "20 µg/mL"
  }
]

Please find the next compound below.
Ask: If you can, please state the reported MCC at 72 h value of O=c1nc(-c2ccccc2)c2cc([N+](=O)[O-])ccc2n1CC1CCCCCC1 .
Reply: 100 µg/mL

====

assay: Toxic effects in chick embryo fibroblast cell culture (minimum toxic concentration); settings: chicken, chick embryo fibroblast cells
measured-parameter: MCC at 72 h (µg/mL)
# output: bare number, implied unit µg/mL

[
  {
    "compound-smiles": "O=c1nc(-c2ccccc2)c2cc([N+](=O)[O-])ccc2n1CC1CCCCCCC1",
    "result": 100
  }
]

Ask: Dear colleague, I am looking for the recorded MCC at 72 h of the following molecule: O=c1nc(-c2ccccc2)c2cc([N+](=O)[O-])ccc2n1Cc1ccccc1
Reply: 25

Ask: Thanks! And O=c1nc(-c2ccccc2)c2cc([N+](=O)[O-])ccc2n1Cc1ccco1 ?
Reply: 100

Ask: Next entry: O=c1nc(C2CCCCC2)c2cc([N+](=O)[O-])ccc2n1CC1CC1
Reply: 50

Ask: Check O=c1nc(-c2ccccc2)c2cc([N+](=O)[O-])ccc2n1Cc1ccccc1Cl too.
Reply: 5

Ask: Same question for O=c1nc(-c2ccccc2)c2cc([N+](=O)[O-])ccc2n1Cc1ccccn1 please.
Reply: 50

Ask: Follow-up entry: Cc1ccccc1Cn1c(=O)nc(-c2ccccc2)c2cc([N+](=O)[O-])ccc21
Reply: 5

Ask: Same question, CSCn1c(=O)nc(-c2ccccc2)c2cc([N+](=O)[O-])ccc21 this time
Reply: 50

Ask: Field entry: O=c1nc(-c2ccccc2)c2cc([N+](=O)[O-])ccc2n1C1CCCCC1
Reply: 100

Ask: Entry O=c1nc(-c2ccccc2)c2cc([N+](=O)[O-])ccc2n1CC1CCCCC1 please
Reply: 100

Ask: Could you do the same for O=c1nc(-c2ccccc2Cl)c2cc([N+](=O)[O-])ccc2n1CC1CC1 , please?
Reply: 50
